test system: ACHN renal; assay: NCI-60 one-dose screen, 48 h (100 = growth as untreated, 0 = no growth, -100 = all killed); conditions: 10 µM unless noted
This is part of a sample that, as a whole, favours compounds with a hit. Of some 83,000 tested, about 20% had one in any assay.
Reported growth maps to class as: low value: < 60%; medium value: ≥ 60% and < 90%; high value: ≥ 90%

Example entries begin here.
INSERT INTO assay_data (compound, label) VALUES
  ('O=[N+]([O-])c1ccc(NS(=O)(=O)c2ccccc2)c2ccccc12', 'medium value'),
  ('CCCCN(CCCC)c1ccc(C(=N)c2ccc(N(C)C)cc2)cc1', 'low value'),
  ('O=C(O)c1ccccc1C(=O)c1ccc(I)cc1', 'high value');

Task: Kindly state the category for this compound: O=c1c2ccccc2sc2c(N3CCCC3)nc3ccccc3c12
Result: high value

Task: Kindly state the category for this compound: COc1cc2ncnc(Oc3ccc(NC(=O)Nc4ccc(C5(C#N)CCCC5)cc4)c4ccccc34)c2cc1OC
Result: low value

Task: Kindly state the category for this compound: O=C(/C=C/c1ccco1)c1cccc(Nc2nc(Nc3ccccc3)nc(Nc3ccccc3)n2)c1
Result: high value

Task: Kindly state the category for this compound: COc1cc2ncn3c(=O)c4c5c(sc4nc3c2cc1OC)CCCCC5
Result: high value

Task: Kindly state the category for this compound: OCc1cnccc1NC12CC3CC(CC(C3)C1)C2
Result: high value

Task: Kindly state the category for this compound: O=C(Cn1c2ccccc2c2ccncc21)N/N=C/c1c[nH]c2ccccc12
Result: medium value

###

test system: SR leukemia; experiment: NCI-60 one-dose screen, 48 h (100 = growth as untreated, 0 = no growth, -100 = all killed); conditions: 10 µM unless noted
The panel holds about 83,000 compounds, 20% with a hit somewhere; the sample as a whole holds those more often.
reported property: growth (%)
Respond with the bare value in %.

INSERT INTO results (compound, experimental_system, reported_property, unit_abbrev, endpoint_result) VALUES
  ('CN(C)c1ccc(/C=N/n2c(-c3cc(F)c(Cl)cc3Cl)nn(CN3CCOCC3)c2=S)cc1', 'SR leukemia', 'growth', '%', 83.6);

Task: Sample N#Cc1c(N)nc2c(c1N)C(c1ccc(Cl)cc1)C1=C(CCCC1=O)N2c1sc2c(c1C#N)CCCC2 (centres undefined) — what was its growth?
Result: 41.8

Task: Sample CCCCn1c(-c2cccc(OC)c2)nc2cc(OC)c(OC)cc2c1=O — what was its growth?
Result: 75.1

Task: Sample Nc1nccc2c1ccn2-c1ccc(NC(=O)Nc2cccc(C(F)(F)F)c2)cc1 — what was its growth?
Result: 91.5

Task: Sample CCN1CCN(Cc2ccc(NC(=O)Nc3cccc(-n4ccc5c(NC(=O)c6ccccc6)nccc54)c3)cc2C(F)(F)F)CC1 — what was its growth?
Result: 64.3

Task: Sample CC(C)(C)OC(=O)N1CC(Cn2cc(C(F)(F)F)c3c(Cl)ncnc32)C1 — what was its growth?
Result: -60.9

Task: Sample c1ccc([Se]CCCN2CCN(CCC[Se]c3ccccc3)CC2)cc1 — what was its growth?
Result: 126

Task: Sample C=C1C(=O)O[C@H]2[C@H]1CC/C(C(=O)NCCOCCOCC(=O)Nc1ccc(OC)c(C(N)=O)c1O)=C\CC[C@@]1(C)O[C@@H]21 — what was its growth?
Result: 75.3

Task: Sample COc1ccc(-c2nn(-c3ccc(NC(=O)Nc4ccc(Cl)c(Cl)c4)cc3)cc2-c2ccncc2)cc1Cl — what was its growth?
Result: 5.18

Task: Sample CC(=O)Nc1ccc([I+]c2ccc([N+](=O)[O-])cc2)cc1 — what was its growth?
Result: 87.7

Task: Sample CC(C)CNCC(=O)Nc1ccc(Cc2ccc(NC(=O)CNCC(C)C)cc2)cc1 — what was its growth?
Result: 6.24

###

system: SW-620 colon; assay: NCI-60 one-dose screen, 48 h; details: 10 µM unless noted
Compounds without any hit were thinned out: in the full panel of roughly 83,000, 20% have a hit. Activity calls are given as the source filed them. Rule for the calls: active = growth percent below 10; inactive = the rest.
Entry note: the call must match one of active, inactive

Example entries begin here.
INSERT INTO measurements (smiles_data, label) VALUES
  ('S=c1n(CNc2ccc(Cl)nn2)nc(-c2cc(Cl)cc(Cl)c2Cl)n1/N=C/c1ccc(Cl)cc1', 'inactive'),
  ('COc1cc(C(=O)NNC(=O)c2ccccc2C(=O)O)cc(OC)c1OC', 'inactive'),
  ('COc1ccc(/C=C2\CS(=O)(=O)C/C(=C\c3ccc(OC)cc3)C2=O)cc1', 'active'),
  ('COc1ccc(Cn2cc3c(c2-c2cc(OC)c(OC)c(OC)c2)CCc2c(CO)noc2-3)cc1', 'inactive'),
  ('O=C(Nc1ccc(-n2ccc3c(NC(=O)c4ccccc4)ncnc32)cc1)Nc1ccc(Cl)c(C(F)(F)F)c1', 'inactive'),
  ('O=c1[nH]ccc2nc(N3CCC(O)CC3)nc(Nc3cccc(C(F)(F)F)c3)c12', 'inactive');

Task: Tell me the recorded outcome of this test for Cn1c2ccccc2c2ssc(=S)c21 .
Result: inactive

Task: Tell me the recorded outcome of this test for c1ccc2c(c1)Oc1cccnc1-n1nccc1-2 .
Result: inactive

Task: Tell me the recorded outcome of this test for O=C(Nc1ccc(-n2cc(-c3ccncc3)c(-c3ccc(O)c(Cl)c3)n2)cc1)c1cc(C(F)(F)F)cc(C(F)(F)F)c1 .
Result: inactive

###

tested on: DU-145 prostate; experiment: NCI-60 one-dose screen, 48 h (100 = growth as untreated, 0 = no growth, -100 = all killed); conditions: 10 µM unless noted
Compounds without any hit were thinned out: in the full panel of roughly 83,000, 20% have a hit.
Documented growth across a set of compounds
Respond with the bare value in %.

Example cases with answers are listed next.
INSERT INTO results (compound, reported_property, unit_abbrev, endpoint_result) VALUES
  ('O=C(Nc1ccc(F)cc1)Nc1ccc(Br)c(C(F)(F)F)c1', 'growth', '%', 22.3),
  ('CC(C)(C)OC(=O)N1CCN(CCn2cc(C(F)(F)F)c3c(Cl)ncnc32)CC1', 'growth', '%', 39.8),
  ('Cc1ccc2[nH]c3nc4cccnc4c(C)c3c2c1', 'growth', '%', 102),
  ('CC1(C)N=C(N)N=C(N)N1c1ccc(F)c(C(F)(F)F)c1', 'growth', '%', 38.5),
  ('O=C(NCCNc1nccc(-c2c(-c3cccc(O)c3)nc3sccn23)n1)c1cc(N2CCOCC2)cc(C(F)(F)F)c1', 'growth', '%', 110),
  ('CCC1S/C(=N\N=C(/C)c2cccs2)N(c2ccccc2)C1=O (centres undefined)', 'growth', '%', 123),
  ('COc1ccc(C[C@H](N)C(=O)N[C@@H]2[C@@H](CO)OC(n3cnc4c(N(C)C)ncnc43)[C@@H]2O)cc1 (some centres undefined)', 'growth', '%', -7.63),
  ('CC(CCC(=O)O)[C@H]1CCC2C3C(=O)C[C@@H]4CC(=O)CC[C@]4(C)C3CC(=O)[C@@]21C (some centres undefined)', 'growth', '%', 114);

Task: Sample O=C(Nc1ccc(-n2cc(-c3ccncc3)c(-c3ccc(O)c(Cl)c3)n2)cc1)c1ccc(Cl)c(Cl)c1 — what was its growth?
Result: 46.1

Task: Sample C#C[C@@]1(O)[C@@H](CO)O[C@@H](n2cc(Br)c3c(Cl)ccnc32)[C@@H]1O — what was its growth?
Result: -41.3

Task: Sample Fc1ccc(/C=N/n2c(-c3cc(Cl)cc(Cl)c3Cl)nn(CNc3ccc(Cl)nn3)c2=S)cc1 — what was its growth?
Result: 121

Task: Sample CC(CN(C)C)CN1c2ccccc2CCc2ccccc21 (centres undefined) — what was its growth?
Result: 106

Task: Sample O=C(O)c1ccc2nc(-c3ccc(OCCCCCOc4ccc(-c5nc6ccc(C(=O)O)cc6[nH]5)cc4)cc3)[nH]c2c1 — what was its growth?
Result: 120

###

system: HT29 colon; assay: NCI-60 one-dose screen, 48 h; details: 10 µM unless noted
This is part of a sample that, as a whole, favours compounds with a hit. Of some 83,000 tested, about 20% had one in any assay. The source made the active and inactive calls. How the source made its calls: active means growth percent below 10; inactive means the rest.
Entry note: the call must match one of label 1 for active, label 0 for inactive

Example entries begin here.
INSERT INTO measurements (smiles_data, label) VALUES
  ('O=C(Nc1ccc(F)cc1)Nc1ccc(Br)c(C(F)(F)F)c1', 'label 1'),
  ('COc1ccccc1P(c1ccccc1OC)c1ccccc1OC', 'label 0');

Consider the record given below.
Task: Tell me the recorded outcome of this test for COc1ccc(-c2nn(-c3ccc(NC(=O)Nc4cc(C(F)(F)F)cc(C(F)(F)F)c4)cc3)cc2-c2ccncc2)cc1Cl .
Result: label 0

###

test system: U251 CNS; experiment: NCI-60 one-dose screen, 48 h; conditions: 10 µM unless noted
About 83,000 compounds went through this panel and 20% of them were active in at least one assay; those are over-represented in the sample as a whole. Calls of active or inactive are those of the source. How the source made its calls: active means growth percent below 10; inactive means the rest.
Entry note: the call must match one of active, inactive

Example entries begin here.
INSERT INTO results (compound, label) VALUES
  ('C=C1C(=O)O[C@H]2[C@H]1CC/C(COC(=O)c1cccc3ccccc13)=C\CC[C@@]1(C)O[C@@H]21', 'active'),
  ('Clc1ccc2c(NCCNc3nc(Cl)nc4ccccc34)ccnc2c1', 'active'),
  ('CC1CCc2cc(F)cc3c(=O)c(C(=O)O)cn1c23 (stereo not given)', 'inactive'),
  ('Nc1nc(Cl)c2c(C(F)(F)F)cn(CC3CCNCC3)c2n1', 'inactive'),
  ('CCCCCCCCCCCC(=O)OCCNC(=O)C[n+]1ccccc1', 'inactive');

Task: Tell me the recorded outcome of this test for Cc1cccc(Cc2cnc(NC(=O)CCc3ccc(C)o3)s2)c1 .
Result: inactive

Task: Tell me the recorded outcome of this test for COc1ccc(-c2nn(-c3ccc(NC(=O)Nc4cc(C(F)(F)F)cc(C(F)(F)F)c4)cc3)cc2-c2ccncc2)cc1Cl .
Result: inactive

Task: Tell me the recorded outcome of this test for CC(=O)Nc1ccc([I+]c2ccc([N+](=O)[O-])cc2)cc1 .
Result: inactive

Task: Tell me the recorded outcome of this test for COc1cc(/C=C2/Oc3cc4occc4c(OC)c3C2=O)ccc1OCC(=O)Nc1ccncc1 .
Result: inactive

Task: Tell me the recorded outcome of this test for O=C(NCCNc1nccc(-c2c(-c3cccc(O)c3)nc3sccn23)n1)Nc1cccc(C(F)(F)F)c1 .
Result: inactive

Task: Tell me the recorded outcome of this test for COc1ccc(-c2nn(-c3ccc(NC(=O)Nc4ccc(Cl)c(Cl)c4)cc3)cc2-c2ccncc2)cc1Cl .
Result: active
